Target: Human GLP-1 receptor (Homo sapiens)
Construct: expressed in transfected cells
Sequence (P43220 24-463): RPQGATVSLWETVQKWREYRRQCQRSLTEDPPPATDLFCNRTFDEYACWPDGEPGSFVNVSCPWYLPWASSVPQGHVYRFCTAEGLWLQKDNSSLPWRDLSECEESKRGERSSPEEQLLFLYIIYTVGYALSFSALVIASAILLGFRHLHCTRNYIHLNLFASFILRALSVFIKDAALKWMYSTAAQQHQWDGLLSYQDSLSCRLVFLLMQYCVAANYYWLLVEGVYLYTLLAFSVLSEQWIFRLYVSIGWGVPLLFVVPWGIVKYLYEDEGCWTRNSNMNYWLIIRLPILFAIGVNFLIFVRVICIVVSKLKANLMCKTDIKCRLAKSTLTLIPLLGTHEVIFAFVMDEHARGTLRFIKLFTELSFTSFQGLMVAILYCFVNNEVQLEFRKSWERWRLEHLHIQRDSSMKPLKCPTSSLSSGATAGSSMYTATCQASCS
Assay: Measurement of GLP-1 receptor agonist activity (cAMP assay)
Format: cell-based
Details: CHO-K1, hGLP-1R/CHO-K1 cells, cAMP; 100% = human GLP-1 (7-36) at 2 nM, 0% = DMSO only; read-out: Emax(%)
Description: Test Example 1: (Measurement of GLP-1 Receptor Agonist Activity) Human GLP-1 receptor stably expressing cells (hGLP-1R/CHO-K1 cells) are cultured in an α-MEM medium (Sigma) containing 10% FBS (Hyclone), 2% GlutaMAX (Gibco), 1% G418 (Nacalai Tesque), and 1% Penicillin-Streptomycin Mixed Solution (Sigma) at 37° C. under 5% CO2 conditions, and recovered by treating a 10 fold diluted 5.0 g/l-trypsin/5.3 mmol/l-EDTA solution (Nacalai Tesque) and cryopreserved. […]
reported endpoint: Emax (%)
// note: answer is a bare numeric in %

A selection of reference data follows.
* O=C(O)c1ccc2nc(CN3CCc4cc(C(F)(F)F)c(OCc5ccc(F)cc5Cl)cc4C3)n(C[C@@H]3CCO3)c2c1 | 105
* CC(c1nc2ccc(C(=O)O)cc2n1C[C@@H]1CCO1)N1CCc2cc(C(F)(F)F)c(OCc3ccc(Cl)cc3F)cc2C1 (mixture of isomers) | 146
* O=C(O)c1ccc2nc(CN3CCc4cc(C(F)(F)F)c(OCc5ccc(Cl)c(F)c5F)cc4C3)n(C[C@@H]3CCO3)c2c1 | 112
* CCn1cncc1Cn1c(CN2CCc3cc(C)c(OCc4ccc(Cl)cc4F)cc3C2)nc2ccc(C(=O)O)cc21 | 92.2
* Fc1cc(Cl)ccc1COc1cc2c(cc1C(F)(F)F)CCN(Cc1nc3ccc(-c4nnn[nH]4)cc3n1C[C@@H]1CCO1)C2 | 116

Attention now shifts to the item below.
Fill: Emax (Human GLP-1 receptor (Homo sapiens)) for this molecule "C[C@H]1c2cc(OCc3c(F)cc(Cl)cc3F)c(C(F)(F)F)cc2CCN1Cc1nc2c(F)cc(C(=O)O)cc2n1C[C@@H]1CCO1"
122
